# method_summary: Multiple ascending dose study in obese males: pharmacokinetics
# Format: in vivo, human
# applied_conditions: male, human, plasma, oral, 450 mg, fasted conditions; read-out: Median Tmax
metric_name: Tmax (h)
Answer in h, number only, no unit symbol.

Q: Assign Tmax to the following record: CCCCCCCC/C(=C\CCCCCCCC(=O)O)[N+](=O)[O-] [CXA-10, 10-nitro-9(E)-octadec-9-enoic acid]
A: 3
